Here we gather pIC50 data for Coagulation factor IX (Homo sapiens, UniProt P00740) reported by several publications.
A value of pIC50 is the negative decimal logarithm of a concentration given in moles per litre.

# count of solved cases: 3
Form field: pIC50 recorded for Nc1noc2c(N3CC[C@@H](NC(=O)c4ccc(-n5cnnc5C(F)F)cc4Cl)C3)ncc(Cl)c12 with Coagulation factor IX (Homo sapiens, UniProt P00740) (enter value)
7.35

Same read-out for Nc1noc2c(N3CC[C@@H](NC(=O)c4ccc(-n5cnnc5)cc4Cl)C3)cc(Cl)c(Cl)c12 ?
7.33

COc1cccc(C(=O)O)c1OCC(O)c1cc(-c2ccc3c(c2)[C@H](N)CO3)cc(C(C)C)c1 (mixture of isomers) ?
4.81

Continuing:
Lookup: pIC50 / Coagulation factor IX (Homo sapiens, UniProt P00740) / Cc1nc2cc([C@@H](CNC(=O)c3c(Cl)cc(-n4cnc(CO)n4)cc3Cl)c3cccc(F)c3)ccc2[nH]1
7.96
